molecular target: 6His-Tev-LRRK2 (1326-2527) (Homo sapiens, UniProt Q5S007); construct: A LRRK2 cDNA encoding residues 1326-2527 was received from Dundee University; made in house; host or cells: Spodoptera frugiperda (Sf9) insect cells, baculovirus (pFB-HTb); assay: LRRK2 peptide substrate assay; format: biochemical; conditions: mean pIC50 of multiple test results; Biotin-LRRKtide peptide substrate, ATP at Km; read-out: LRRK2 peptide substrate assay (pIC50) (converted)
metric.name: IC50 (nM)

molecule="O=C(Nc1cccnc1)c1cc(C(F)(F)F)c(C(=O)N2CCCCC2)cc1OCc1ccccc1 [Example 39]" metric_name=IC50 unit_string=nM value_measured=15.8
molecule="Cc1nocc1NC(=O)c1cc(-c2cnn(C)c2)c(CN2CCOCC2)cc1OCc1ccc(F)cc1 [Example 18]" metric_name=IC50 unit_string=nM value_measured=12.6
molecule="Cc1cc(C(=O)Nc2ccnnc2)c(OCc2ccccc2)cc1-c1cnn(C)c1 [Example 12]" metric_name=IC50 unit_string=nM value_measured=10
molecule="Cn1cc(-c2cc(C(=O)Nc3cccnc3)c(OCc3ccccc3)cc2C(=O)N2CCCCC2)cn1 [Example 31]" metric_name=IC50 unit_string=nM value_measured=6.31
molecule="Cc1cc(OCc2ccccc2)c(C(=O)Nc2cccnc2)cc1-c1cnn(C)c1 [Example 7]" metric_name=IC50 unit_string=nM value_measured=15.8
molecule="Cc1cc(C(=O)Nc2ccnnc2)c(OCc2ccccc2)cc1Br [Example 10]" metric_name=IC50 unit_string=nM value_measured=6.31
molecule="O=C(Nc1ccnnc1)c1cc(Cl)c(C(=O)N2CCC(F)(F)C2)cc1OCc1ccccc1 [Example 42]" metric_name=IC50 unit_string=nM value_measured=50.1
molecule="Cn1cc(-c2cc(C(=O)Nc3cccnc3)c(OCc3ccccc3)cc2C(=O)N2CCOCC2)cn1 [Example 23]" metric_name=IC50 unit_string=nM value_measured=12.6

###

Let's look at some molecules and their measured IC50.
Biological target: 6His-Tev-LRRK2 (1326-2527) (Homo sapiens, UniProt Q5S007)
Construct: A LRRK2 cDNA encoding residues 1326-2527 was received from Dundee University; made in house; host or cells: Spodoptera frugiperda (Sf9) insect cells, baculovirus (pFB-HTb)
Sequence (Q5S007 1326-2527): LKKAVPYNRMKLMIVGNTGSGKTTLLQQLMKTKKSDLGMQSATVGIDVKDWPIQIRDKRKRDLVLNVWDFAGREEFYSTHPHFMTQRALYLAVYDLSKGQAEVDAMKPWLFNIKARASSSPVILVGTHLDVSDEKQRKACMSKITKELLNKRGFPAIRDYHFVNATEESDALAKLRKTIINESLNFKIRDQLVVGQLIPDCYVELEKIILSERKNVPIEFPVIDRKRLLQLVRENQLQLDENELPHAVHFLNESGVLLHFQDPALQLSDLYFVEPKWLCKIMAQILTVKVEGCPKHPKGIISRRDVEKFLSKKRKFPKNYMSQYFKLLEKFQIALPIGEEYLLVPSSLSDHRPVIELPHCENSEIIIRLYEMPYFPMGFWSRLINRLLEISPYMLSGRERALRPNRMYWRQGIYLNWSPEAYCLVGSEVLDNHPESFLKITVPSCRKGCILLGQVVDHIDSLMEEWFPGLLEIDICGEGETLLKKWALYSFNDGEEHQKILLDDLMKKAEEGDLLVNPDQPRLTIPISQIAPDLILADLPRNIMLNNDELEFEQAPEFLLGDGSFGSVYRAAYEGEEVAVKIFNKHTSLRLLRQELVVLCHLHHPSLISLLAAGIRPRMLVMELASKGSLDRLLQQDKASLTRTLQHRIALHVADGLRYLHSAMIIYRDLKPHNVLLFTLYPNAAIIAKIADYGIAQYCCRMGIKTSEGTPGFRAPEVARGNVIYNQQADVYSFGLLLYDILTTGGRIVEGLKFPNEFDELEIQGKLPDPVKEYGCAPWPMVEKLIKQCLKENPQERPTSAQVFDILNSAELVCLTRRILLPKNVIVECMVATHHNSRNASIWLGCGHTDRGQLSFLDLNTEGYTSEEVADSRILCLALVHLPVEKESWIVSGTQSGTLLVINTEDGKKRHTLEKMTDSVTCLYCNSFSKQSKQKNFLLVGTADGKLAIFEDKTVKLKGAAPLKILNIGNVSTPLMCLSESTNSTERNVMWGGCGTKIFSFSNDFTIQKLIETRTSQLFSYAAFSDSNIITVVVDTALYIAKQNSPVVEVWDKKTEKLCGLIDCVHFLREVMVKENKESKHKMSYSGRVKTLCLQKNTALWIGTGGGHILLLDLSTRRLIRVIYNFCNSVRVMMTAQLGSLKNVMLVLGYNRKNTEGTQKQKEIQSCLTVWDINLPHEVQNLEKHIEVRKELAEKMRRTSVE
Test: LRRK2 peptide substrate assay
Assay type: biochemical
Conditions: mean pIC50 of multiple test results; Biotin-LRRKtide peptide substrate, ATP at Km; read-out: LRRK2 peptide substrate assay (pIC50) (converted)
metric.name: IC50 (nM)

molecule="O=C(Nc1cccnc1)c1cc(Cl)c(C(=O)N2CCOCC2)cc1OCc1ccccc1 [Example 44]" system_tested="6His-Tev-LRRK2 (1326-2527) (Homo sapiens, UniProt Q5S007)" value_measured=31.6
molecule="Cc1cc(C(=O)Nc2cccnc2)c(OCc2ccccc2)cc1-c1cnn(C)c1 [Example 11]" system_tested="6His-Tev-LRRK2 (1326-2527) (Homo sapiens, UniProt Q5S007)" value_measured=7.94
molecule="Cn1cc(-c2cc(C(=O)Nc3cccc(F)c3)c(OCc3ccc(F)cc3)cc2C(=O)N2CCOCC2)cn1 [Example 47]" system_tested="6His-Tev-LRRK2 (1326-2527) (Homo sapiens, UniProt Q5S007)" value_measured=10
molecule="Cc1cc(C(=O)Nc2cccnc2)c(OCc2ccccc2)cc1Br [Example 9]" system_tested="6His-Tev-LRRK2 (1326-2527) (Homo sapiens, UniProt Q5S007)" value_measured=10
molecule="Cn1cc(-c2cc(C(=O)Nc3ccnnc3)c(OCc3ccc(F)cc3)cc2C(=O)N2CCOCC2)cn1 [Example 27]" system_tested="6His-Tev-LRRK2 (1326-2527) (Homo sapiens, UniProt Q5S007)" value_measured=50.1
